These entries and their values trace back to patent US20250215072A1.

- target-or-system: hLRRC33-proTGFβ1 presented on cells (human, UniProt P01137 30-390; Q86YC3 19-692)
- Sequence (P01137 30-390 limits assumed, chain 1 of 2): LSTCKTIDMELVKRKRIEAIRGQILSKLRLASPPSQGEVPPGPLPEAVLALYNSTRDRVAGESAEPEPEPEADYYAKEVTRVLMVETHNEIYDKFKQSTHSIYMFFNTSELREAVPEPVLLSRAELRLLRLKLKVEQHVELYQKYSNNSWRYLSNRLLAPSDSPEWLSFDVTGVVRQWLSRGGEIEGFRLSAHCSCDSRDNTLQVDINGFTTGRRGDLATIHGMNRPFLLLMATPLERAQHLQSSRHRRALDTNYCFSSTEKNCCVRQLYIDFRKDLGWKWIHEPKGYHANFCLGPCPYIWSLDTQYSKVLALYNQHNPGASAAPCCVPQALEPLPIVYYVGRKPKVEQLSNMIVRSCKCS
- Sequence (Q86YC3 19-692 limits assumed, chain 2 of 2): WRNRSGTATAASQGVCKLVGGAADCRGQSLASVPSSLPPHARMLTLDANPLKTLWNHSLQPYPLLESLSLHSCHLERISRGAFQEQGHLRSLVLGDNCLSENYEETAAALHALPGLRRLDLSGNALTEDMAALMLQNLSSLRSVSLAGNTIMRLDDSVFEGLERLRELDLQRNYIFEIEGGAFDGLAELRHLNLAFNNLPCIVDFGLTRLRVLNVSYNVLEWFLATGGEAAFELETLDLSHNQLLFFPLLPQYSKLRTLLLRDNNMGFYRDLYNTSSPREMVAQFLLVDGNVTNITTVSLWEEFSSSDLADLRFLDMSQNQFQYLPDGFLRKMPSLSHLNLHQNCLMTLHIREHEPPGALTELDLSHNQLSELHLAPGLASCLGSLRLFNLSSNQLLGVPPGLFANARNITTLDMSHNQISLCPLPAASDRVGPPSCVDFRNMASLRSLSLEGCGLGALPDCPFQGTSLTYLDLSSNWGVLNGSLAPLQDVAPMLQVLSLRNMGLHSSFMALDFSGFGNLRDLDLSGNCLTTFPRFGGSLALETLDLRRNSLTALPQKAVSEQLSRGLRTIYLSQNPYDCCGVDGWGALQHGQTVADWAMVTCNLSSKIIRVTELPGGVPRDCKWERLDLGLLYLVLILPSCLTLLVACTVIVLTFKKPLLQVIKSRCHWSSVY
- measurement-description: cell-based or functional assay
Entries and their IC50, reporter cell assay values follow.
Form entry: value (nM) — number only.

// known answers, use as guide
- binder: "Ab25 (antibody, V domains shown) VH: EVQLVESGGGLVQPGGSLRLSCAASGFTFGSFSMDWVRQAPGKGLEWVSYISPDASTIYYADSVKGRFTISRDNAKNSLYLQMNSLRAEDTAVYYCARGVLDYGDMLDPWGQGTLVTVSS VL: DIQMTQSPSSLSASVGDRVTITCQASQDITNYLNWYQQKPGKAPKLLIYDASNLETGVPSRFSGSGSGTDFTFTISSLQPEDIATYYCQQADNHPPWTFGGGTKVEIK"
  IC50, reporter cell assay [nM]: 0.653
- binder: "Ab23 (antibody, V domains shown) VH: EVQLVESGGGLVQPGGSLRLSCAASGFTFSSFSMNWVRQAPGKGLEWVSYISPSADTIYYADSVKGRFTISRDNAKNTLYLQMNSLRAEDTAVYYCARGVLDYGDMLDPWGQGTLVTVSS VL: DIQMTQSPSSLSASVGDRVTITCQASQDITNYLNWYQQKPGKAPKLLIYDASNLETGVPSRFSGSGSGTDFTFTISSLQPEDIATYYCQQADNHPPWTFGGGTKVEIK"
  IC50, reporter cell assay [nM]: 0.579
- binder: "Ab21 (antibody, V domains shown) VH: EVQLVESGGGLVQPGGSLRLSCAASGFTFSSFSMDWVRQAPGKGLEWVSYISPDASTIYYADSVKGRFTISRDNAKNSLYLQMNSLRAEDTAVYYCARGVLDYGDMLDPWGQGTLVTVSS VL: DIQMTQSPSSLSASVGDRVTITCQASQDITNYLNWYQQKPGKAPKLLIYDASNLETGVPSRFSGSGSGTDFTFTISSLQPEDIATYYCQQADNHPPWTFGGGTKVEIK"
  IC50, reporter cell assay [nM]: 0.596
- binder: "Ab26 (antibody, IgG4, V domains shown) VH: EVQLVESGGGLVQPGGSLRLSCAASGFTFSSFSMDWVRQAPGKGLEWVSYISPDASTIYYADSVKGRFTISRDNAKNTLYLQMNSLRAEDTAVYYCARGVLDYGDMLDPWGQGTLVTVSS VL: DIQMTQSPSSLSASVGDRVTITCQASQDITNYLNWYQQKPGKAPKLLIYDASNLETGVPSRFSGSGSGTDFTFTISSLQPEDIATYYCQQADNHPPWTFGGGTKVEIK"
  IC50, reporter cell assay [nM]: 0.341

API: the following record is the query input.
Ask | Need IC50, reporter cell assay of Ab29 (antibody, IgG4, V domains shown) VH: EVQLVESGGGLVQPGRSLRLSCAASGFTFSSFAMNWVRQAPGKGLEWVSYISPDASTIYYAGSVKGRFTISRDNAKNSLYLQMNSLRAEDTAVYYCVRAVLDYGDMLDPWGQGTLVTVSS VL: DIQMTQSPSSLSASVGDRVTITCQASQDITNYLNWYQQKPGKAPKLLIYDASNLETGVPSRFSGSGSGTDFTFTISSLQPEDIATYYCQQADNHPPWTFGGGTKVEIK , thanks.
Reply | 0.458
